test system: TTK; settings: concentration: 1 μM, replicates: in singlicate; n = 1;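 note: KINOMEscan kinase panel screen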
Measured %Inh by item
Give just the numeric value; % need not be written.

Below, each entry is followed by its recorded %Inh result.
{"columns": ["compound", "%Inh / %"],
 "data": [
  ["Cc1ccc(C(=O)Nc2ccc(Nc3ccnc4cc(-c5nccs5)ccc34)cc2O)cc1.Cl [GW494702]", 0],
  ["Cc1ccc(F)c(C(=O)Nc2cccc(-c3nn4ccccc4c3-c3ccnc(Nc4cccc(F)c4)n3)c2)c1F [GSK361061]", 39],
  ["COc1cccc(C2=C(Nc3ccc(Cl)c(C(=O)O)c3)C(=O)NC2=O)c1 [SB-390769]", 0],
  ["O=C(Nc1ccccc1F)NC1CCN(c2ccnc(Nc3ccc(F)cc3)n2)CC1 [GSK1379800]", 0],
  ["Cl.NC(=O)c1cccc(Nc2nccc(Nc3ccc(Oc4c(Cl)cccc4Cl)c(Cl)c3)n2)c1 [GW659009]", 10]
]}

Could you share what %Inh was measured for CN(C)Cc1ccc(-c2ccc3c(Nc4ccc(Oc5ccccn5)cc4)ccnc3c2)o1 [GW567148] , tested on TTK?
0

====

Measured %Inh by item
system: IKK-beta; construct: gene IKBKB; details: concentration: 1 μM, replicates: in singlicate; n = 1
Give just the numeric value; % need not be written.

{"columns": ["molecule", "study_system", "result_unit", "%Inh"],
 "data": [
  ["COc1cc(Nc2nccc(N3CCC(NC(=O)c4cc5ccccc5s4)C3)n2)cc(OC)c1OC (stereo not shown) [GSK1379760]", "IKK-beta", "%", 0],
  ["C[C@@H](Oc1cc(-n2cnc3cc(-c4ccnc(NCCS(C)(=O)=O)c4)ccc32)sc1C(N)=O)c1ccccc1Cl [GSK907232]", "IKK-beta", "%", 15],
  ["O=C(Nc1cccc(-c2nn3ccccc3c2-c2ccnc(Nc3cccc(C(F)(F)F)c3)n2)c1)c1c(F)cccc1F [GSK292658]", "IKK-beta", "%", 3],
  ["O=C(Nc1cccc(-c2nn3ccccc3c2-c2ccnc(Nc3cccc(F)c3)n2)c1)c1c(F)ccc(F)c1Cl [GSK357952]", "IKK-beta", "%", 0],
  ["Nc1ncc(-c2cccnc2)c2scc(-c3ccc4c(c3)CCN4C(=O)Cc3ccccc3)c12 [GSK683281]", "IKK-beta", "%", 11],
  ["CN1CCN(Cc2cccc(-c3ccc4c(Nc5ccc(Oc6ccccc6)cc5)ccnc4c3)c2)CC1 [GW578342]", "IKK-beta", "%", 0]
]}

Look up %Inh for this molecule: Cn1cc(-c2ccc3c(c2)CCN3C(=O)Cc2cccc(F)c2)c2c(N)ncnc21 [GSK2603358]
43

====

Measured %Inh by item
test system: PDPK1; conditions: concentration: 1 μM, replicates: in singlicate; n = 1
Give just the numeric value; % need not be written.

{"columns": ["molecule", "study_system", "%Inh, %"],
 "data": [
  ["Clc1ccc(-c2nn3ncccc3c2-c2ccnc(Nc3ccc4c(c3)OCCO4)n2)cc1 [GW829116]", "PDPK1", 0]
]}

Look up %Inh for this molecule: O=C(Nc1cccc(-c2nn3ncccc3c2-c2ccnc(Nc3ccccc3)n2)c1)c1c(F)cccc1F [GSK198271]
0

What do we get for CN1CCN(CCCNc2nccc(-c3c(-c4ccc(F)cc4)nn4cc(C(F)(F)F)ccc34)n2)CC1 [GW621581] ?
3

What do we get for COc1ccc(-c2coc3ccc(-c4nnc(SCc5ccc(OC)c(C(F)(F)F)c5)o4)cc23)cc1 ?
12

What do we get for COc1cc(Nc2ncc3c(C)nc(-c4cc5ccccc5[nH]4)n3n2)cc(OC)c1OC [GW869516] ?
0

What do we get for Cc1ccc(F)c(C(=O)Nc2cccc(-c3nn4ccccc4c3-c3ccnc(Nc4cccc(F)c4)n3)c2)c1F [GSK361061] ?
11

What do we get for Nc1ncnc2c1nc(-c1ccccc1)n2-c1ccccc1 [SKF-97293] ?
2

What do we get for O=C(Nc1cccc(-c2nn3ccccc3c2-c2ccnc(Nc3cccc(C(F)(F)F)c3)n2)c1)c1c(F)cccc1F [GSK292658] ?
0

====

tested on: DYRK1A; conditions: concentration: 1 μM, replicates: in singlicate; n = 1
Measured %Inh by item
Give just the numeric value; % need not be written.

Look up %Inh for this compound: COc1cccc(NC(=O)NC2CCN(c3ccnc(Nc4cc(OC)c(OC)c(OC)c4)n3)C2)c1 (centres unmarked)
0

What do we get for CCn1c(-c2nonc2N)nc2c(C#CC(C)(C)O)nc(OC[C@H](N)c3ccccc3)cc21 ?
4

What do we get for O=C(Nc1n[nH]c2nc(-c3ccc(O)cc3)ccc12)C1CC1 ?
62

What do we get for CSc1cccc2c(-c3ccncn3)c(-c3ccc(F)cc3)nn12 ?
18

What do we get for COc1cc(Nc2nccc(-c3c(-c4cccc(NC(=O)c5c(F)cccc5F)c4)nn4ncccc34)n2)cc(OC)c1OC ?
23

What do we get for O=c1[nH]cc(-c2ccc(N3CCOCC3)cc2)c2sc(-c3cn[nH]c3)cc12 ?
99.8

What do we get for COc1cccc(C(=O)Nc2cccc(Oc3ccc4nc(NC(=O)C5CC5)cn4n3)c2)c1 ?
0

What do we get for COCCOCCOc1cc2ncc3c4ccc(C#N)cc4[nH]c3c2cc1OC ?
99

====

Measured %Inh by item
test system: RAF1; conditions: concentration: 1 μM, replicates: in singlicate; n = 1
Give just the numeric value; % need not be written.

Could you share what %Inh was measured for Fc1ccc(-c2ncn(C3CCNCC3)c2-c2ccnc(Oc3ccc(-c4ccccc4)cc3)n2)cc1 , tested on RAF1?
0

What do we get for Cc1cccc(Nc2nc(N[C@H]3CCNC3)ncc2C(N)=O)c1.Cl ?
0

What do we get for CCS(=O)(=O)c1ccc(OC)c(Nc2nccc(-c3c(-c4cccc(NC(=O)c5c(F)cccc5F)c4)nn4ncccc34)n2)c1 ?
93.2

What do we get for Cl.Cl.NCC(C(=O)Nc1cc(Br)c(-c2ccnc3[nH]ccc23)s1)c1ccccc1 (stereo not shown) ?
0

====

Measured %Inh by item
system: IRAK1; details: concentration: 1 μM, replicates: in singlicate; n = 1
Give just the numeric value; % need not be written.

Below, each entry is followed by its recorded %Inh result.
{"columns": ["molecule", "study_system", "%Inh (%)"],
 "data": [
  ["Cl.Cl.NCC(C(=O)Nc1cc(Br)c(-c2ccnc3[nH]ccc23)s1)c1ccccc1 (stereo not drawn)", "IRAK1", 81],
  ["COc1cc2c(cc1OCCN1CCNCC1)ncc1c3ccc(C#N)cc3[nH]c21", "IRAK1", 95.7],
  ["c1ccc(Oc2ccc(Nc3ccnc4cc(-c5ccc(CNCCN6CCOCC6)o5)ccc34)cc2)nc1", "IRAK1", 20],
  ["CCc1ccc(-c2ccc3c(c2)-c2c(cnn2C)S(=O)(=O)N3C)cc1", "IRAK1", 0]
]}

Look up %Inh for this molecule: CC(C)c1nc(-c2cccc(NS(=O)(=O)c3c(F)cccc3F)c2F)c(-c2ccnc(Nc3ccc(N4CCOCC4)nc3)n2)s1
17

What do we get for Cl.NC(=O)c1cccc(Nc2nccc(Nc3ccc(Oc4c(Cl)cccc4Cl)c(Cl)c3)n2)c1 ?
0

What do we get for CCn1c(-c2nonc2N)nc2c(C#CC(C)(C)O)nc(OC[C@H](N)c3ccccc3)cc21 ?
0

What do we get for Cc1occc1-c1ncc(OC[C@@H](N)Cc2c[nH]c3ccccc23)cc1-c1ccc2[nH]nc(C)c2c1.O=C(O)C(F)(F)F ?
0

What do we get for COc1ccc(Nc2nccc(N3CCC(NC(=O)Nc4cccc(OC)c4)C3)n2)cc1 (stereo not drawn) ?
0

What do we get for O=C(Nc1ccccc1F)NC1CCN(c2ccnc(Nc3ccc(F)cc3)n2)CC1 ?
24

What do we get for COc1cc(Nc2ncc3c(C)nc(-c4cc5ccccc5[nH]4)n3n2)cc(OC)c1OC ?
2

What do we get for Cl.Cl.NCC(NC(=O)c1cc(-c2ccccc2)c(-c2ccnc3[nH]ccc23)s1)c1ccccc1 (stereo not drawn) ?
40

What do we get for Cc1cccc(Nc2nc(N[C@H]3CCNC3)ncc2C(N)=O)c1.Cl ?
21

What do we get for CN1CCN(CCCNc2nccc(-c3c(-c4ccc(F)cc4)nn4cc(C(F)(F)F)ccc34)n2)CC1 ?
0

What do we get for Clc1ccc(-c2nn3ncccc3c2-c2ccnc(Nc3ccc4c(c3)OCCO4)n2)cc1 ?
0

What do we get for COc1cccc(-c2ccc3c(NC(=O)C4CC4)n[nH]c3n2)c1 ?
57

What do we get for CN(c1ccc(NC(=O)Nc2cc(C(F)(F)F)ccc2F)cc1)c1ccnc(Nc2ccc(S(N)(=O)=O)cc2)n1 ?
49

What do we get for Cc1cccc(NC(=O)Nc2ccc(Oc3ncnc4ccn(C)c34)cc2)c1 ?
0
